Each item that follows carries a reported LAD in mg/kg (lowest active dose for xylazine antagonism).
- Tested on: α2 -adrenoceptor
- assay text: Xylazine-induced loss of righting reflex in rats
- Type: in vivo
- condition info: p.o., one hour before xylazine 15 mg/kg i.v., male rats; lowest tested dose at which at least 66% of animals showed no loss of righting reflex
assay metric: LAD in mg/kg (lowest active dose for xylazine antagonism) (mg/kg)

| molecule | measured |
| --- | --- |
| Cc1nc2ccccn2c(=O)c1CCN1CCc2oc3c([N+](=O)[O-])cccc3c2C1 | 10.00 |
| CSc1nc(C)c(CCN2CCc3oc4ccccc4c3C2)c(=O)n1C | 10.00 |
| Cc1ccc(C(=O)N2CCCC(CN3CCc4oc5ccccc5c4C3)C2)cc1 (centres unmarked) | 10.00 |
| Cc1nc2ccccn2c(=O)c1CCN1CCc2oc3ccc(F)cc3c2C1 | 10.00 |
| Cc1nc2c(Cl)cc(Cl)cn2c(=O)c1CCN1CCc2oc3ccccc3c2C1 | 10.00 |
| Cc1nc2ccccn2c(=O)c1CCN1CCc2oc3ccc(Cl)cc3c2C1 | 10.00 |
| Cc1nc2n(c(=O)c1CCN1CCc3oc4ccccc4c3C1)CCCC2C (centres unmarked) | 10.00 |
| O=c1oc2ccccc2n1CCCN1CCc2oc3ccccc3c2C1 | 10.00 |
| Cc1nc2n(c(=O)c1CCN1CCc3oc4ccccc4c3C1)CCCC2 | 1.25 |
| Cc1nc2sccn2c(=O)c1CCN1CCc2oc3ccc(F)cc3c2C1 | 10.00 |
| Cc1nc2sc3ccccc3n2c(=O)c1CCN1CCc2oc3ccccc3c2C1 | 10.00 |
| Cc1nc2ccccn2c(=O)c1CCN1CCc2oc3ccccc3c2C1 | 0.31 |
| Cc1cc2nc(C)c(CCN3CCc4oc5ccccc5c4C3)c(=O)n2o1 | 1.25 |
| Cc1ccc(C(=O)N2CCC(CN3CCc4oc5ccccc5c4C3)CC2)cc1 | 2.50 |

meta.source: patent US6156757A
